System: TK-10 renal
Assay: NCI-60 one-dose screen, 48 h
Conditions: 10 µM unless noted
Compounds without any hit were thinned out: in the full panel of roughly 83,000, 20% have a hit. Active and inactive are the calls of the source. The calls were made as follows: active = growth percent below 10; inactive = the rest.
Return exactly one item of Yes (active), No (inactive)

Solved cases below.
>>> classification("CNC1=C(Br)C(=O)c2c(C(=O)OC)c(C)nc(C)c2C1=O")
"No"
>>> classification("O=C1Nc2ccccc2/C1=C/c1cccn1CCCCCCn1c2ccccc2c(=O)c2ccccc21")
"No"
>>> classification("O=C1c2ccccc2-c2c1c1ccncc1c(=O)n2CCCn1ccnc1")
"No"
>>> classification("O=C1/C(=C/c2ccccc2)COc2ccc(O)cc21")
"No"
>>> classification("COc1cc2c(c(OC)c1OC)CCC(c1cccc(C(=O)Nc3ccc([N+](=O)[O-])cc3)c1)O2 (stereo not drawn)")
"No"

Challenge: What call does the record list for COc1cccc(NC(=O)c2sc3nc(C)c(C(=O)c4ccccc4)cc3c2N)c1 ?
Response given: No

Challenge: What call does the record list for Cn1cc(-c2nc(-c3c[nH]c4ccncc34)cs2)c2cc(F)ccc21 ?
Response given: Yes

Challenge: What call does the record list for Cc1[nH]c(C(=O)Nc2ccccc2OC2CCNC2)c(Cl)c1Cl (stereo not drawn) ?
Response given: No

Challenge: What call does the record list for CN1CCN(Cn2nc(-c3cc(Cl)cc(Cl)c3Cl)oc2=S)CC1 ?
Response given: No

Challenge: What call does the record list for C#CC#CC#CC#CC#CC#CC#CC#CC[C@@H]1OC[C@H](COC(=O)O[C@@H](C(=O)O[C@H]2C[C@@]3(O)[C@@H](OC(=O)c4ccccc4)[C@@H]4[C@]5(OC(C)=O)CO[C@@H]5C[C@H](O)[C@@]4(C)C(=O)[C@H](OC(C)=O)C(=C2C)C3(C)C)[C@@H](NC(=O)c2ccccc2)c2ccccc2)O1 ?
Response given: No

Challenge: What call does the record list for O=C(c1ccccc1)[C@@H](c1ccccc1)[C@]1(O)C(=O)Nc2ccccc21 ?
Response given: No

Challenge: What call does the record list for Cc1csc(Nc2nc(-c3cccc(Cl)c3)nc(C(Cl)(Cl)Cl)n2)n1 ?
Response given: Yes

Challenge: What call does the record list for C=CCn1c(SCC(=O)Nc2ccc(C(=O)/C=C/c3ccc(Cl)cc3)cc2)nnc1-c1ccc(Cl)c(Cl)c1 ?
Response given: No

Challenge: What call does the record list for COc1ccccc1-c1nc2ccc3[nH]ncc3c2c2c1CCCC2 ?
Response given: No

Challenge: What call does the record list for Cc1cc2c(C(C)C)c(O)c(O)c(/C=N/O)c2c(O)c1-c1c(C)cc2c(C(C)C)c(O)c(O)c(/C=N/O)c2c1O ?
Response given: Yes

Challenge: What call does the record list for CC(C)(C)n1cc(-c2ccnc(NCCNS(=O)(=O)c3ccc(C(F)(F)F)cc3)c2)c(-c2ccccc2)n1 ?
Response given: No

Challenge: What call does the record list for CN1CCN(c2ccc(Nc3ncc4[nH]c(=O)n(Cc5ccccc5N)c4n3)cc2)CC1 ?
Response given: No

Challenge: What call does the record list for CCCCCCC/C=N/NC(=O)c1ccc(-n2cc(-c3ccccc3)nn2)cc1 ?
Response given: No

Challenge: What call does the record list for Cc1c(C)c2c(c(C)c1OC(=O)CCC(=O)[O-])CCC(C)(CCCCCCCCCCC[P+](c1ccccc1)(c1ccccc1)c1ccccc1)O2 (stereo not drawn) ?
Response given: Yes

Challenge: What call does the record list for O=C(Nc1cccc(Cn2c(=O)[nH]c3ccc(Oc4ncccn4)cc3c2=O)c1)c1cccc(Cl)c1 ?
Response given: No

Challenge: What call does the record list for COc1cc(C(=O)n2nc(NCCCc3ccccc3)c3cc(N)ccc32)cc(OC)c1OC ?
Response given: No

Challenge: What call does the record list for CC1=NN(c2cccc(Cl)c2)C(=O)/C1=C\C=C\c1ccccc1 ?
Response given: No
